Measured pIC50 accompanies every entry in the list below.
system: blood cancer cell lines (e.g. HL-60, Jurkat, Raji, Ramos, Daudi, MOLT-4); test: Cell based assay, cell viability (CellTiter-Glo), blood cancer cell lines; settings: Homo sapiens, blood cancer cell line MOLT-4, 72 hours, read-out: IC50, MOLT-4
pIC50: −log10 of the molar value.
reported_endpoint: pIC50

- molecule: "CC(=O)c1c(SCc2cc(F)cc(F)c2)[nH]c2c(Br)ccc(Cl)c2c1=O"
  result_value: "< 5.70"
- molecule: "Cc1cc(C[S+]([O-])c2[nH]c3c(Br)ccc(Cl)c3c(=O)c2C(=O)C2CC2)no1 (centres unmarked)"
  result_value: "< 5.70"
- molecule: "CC(=O)c1c([S+]([O-])Cc2cccnc2)[nH]c2c(Br)ccc(Cl)c2c1=O (centres unmarked)"
  result_value: 6.01
- molecule: "CSc1c(C(C)=O)c(=O)c2c(Cl)ccc(Br)c2n1S(=O)(=O)c1ccc(C(C)(C)C)cc1"
  result_value: "< 5.70"
- molecule: "CC(=O)c1c([S+]([O-])Cc2ccc(S(F)(F)(F)(F)F)cc2)[nH]c2c(Br)ccc(Cl)c2c1=O (centres unmarked)"
  result_value: 5.97
- molecule: "CC(=O)c1c([S+]([O-])CN2C(=O)c3ccccc3C2=O)[nH]c2c(Cl)ccc(Cl)c2c1=O (centres unmarked)"
  result_value: "< 5.70"
- molecule: "CC(=O)c1c([S+]([O-])Cc2ccccc2)nc2c(Br)ccc(Cl)c2c1O (centres unmarked)"
  result_value: 5.86
- molecule: "CC(=O)c1c([S+](C)[O-])n(Cc2ccc(F)c(Cl)c2)c2c(Br)ccc(Cl)c2c1=O (centres unmarked)"
  result_value: "< 5.70"

Numbers sourced from patent US11464770B2.
